# Assay name: qHTS assay to identify small molecule antagonists of the androgen receptor (AR) signaling pathway using the MDA cell line - cell viability counter screen (AID 743041; also: nearly all actives have a fitted effect of over 45% in size)
# Condition set: MDA-kb2 viability, CellTiter-Fluor, 16 h, cells co-treated with R1881 androgen agonist; series mostly up to 70.3 µM
Results filed as inconclusive are left out. Activity calls are given as the source filed them. Calls follow the shape of the dose curve; as a rule, active = well fitted cell-killing curve with a large enough effect in the repeat runs; inconclusive = weak or mixed curves, or effect the other way; inactive = flat fitted curve, though single readings scatter.
Outcome (select one): active, inactive

Known results for molecules:
>  <Molecule>
COc1ccccc1N=Nc1c(S(=O)(=O)O)cc2cc(S(=O)(=O)O)cc(NC(C)=O)c2c1O

>  <Label value>
active

$$$$
>  <Molecule>
O=C(CS)OCCOC(=O)CS

>  <Label value>
inactive

$$$$
>  <Molecule>
NC(=O)Nc1ccc(Cl)c(Cl)c1

>  <Label value>
inactive

$$$$
>  <Molecule>
Nc1ccc(C(=O)OCCCOC(=O)c2ccc(N)cc2)cc1

>  <Label value>
inactive

$$$$
>  <Molecule>
CC(=O)OCC(=O)[C@@]12OC(C)(C)O[C@@H]1C[C@H]1[C@@H]3C[C@H](F)C4=CC(=O)C=C[C@]4(C)[C@@]3(F)[C@@H](O)C[C@@]12C

>  <Label value>
inactive

$$$$

Hey, what did the test say about "Cc1cc2nc3ccc(=[N+](C)C)cc-3sc2cc1N" ?
active
